# protocol: Toxicity liver stage against HepG2, at 10uM
# Assay type: cell-based
# Design: test concentration 10 uM, cell line HepG2-A16-CD81EGFP
# conditions: human, HepG2-A16-CD81EGFP cells; read-out: INHIBITION
result.type: cytotoxicity at 10 µM (%)
Numbers only, in %.

- compound: "CCc1c(C(=O)O)nnn1-c1cc(C)cc(C)c1"
  result.type: "cytotoxicity at 10 µM"
  data.value: -6.69
- compound: "CC(C)COC(=O)N1CC(=O)N(Cc2ccco2)CC(O)C1 (stereo unspecified)"
  result.type: "cytotoxicity at 10 µM"
  data.value: -1.7
- compound: "CCS(=O)(=O)N1CC[C@@H]2[C@H](COCC3CC3)CN(C)C(=O)[C@@H]2CC1"
  result.type: "cytotoxicity at 10 µM"
  data.value: -4.79
- compound: "Cc1ccc(N2CCCN(C(=O)CCC3CCCO3)CC2)nn1 (stereo unspecified)"
  result.type: "cytotoxicity at 10 µM"
  data.value: -16.3

Value sought for every listed compound: cytotoxicity at 10 µM.
1. COc1ccc(C)cc1CN1CCN(Cc2nccn2C)C(C)C1 (stereo unspecified)
2. CN1[C@@H](C(=O)NCC2CC2)C[C@@H]2CN(Cc3ccsc3)C[C@@H]21
3. COc1ccc2c(C)c(C(=O)NCCCc3csc(N)n3)oc2c1
4. O=C(NCCC(O)c1ccccc1)c1ccco1 (stereo unspecified)
5. CCOc1ccc(C(=O)N(C)C)cc1NC(=O)c1ccsc1
6. COCCC(=O)N1CCC(c2noc3nc(C)cc(C(F)(F)F)c23)CC1
7. C[C@H]1CN(C(=O)c2cccnc2)C[C@@]12CCN(CCN1CCCC1)C2=O

Response line:
[1.43, -4.04, 2.58, -0.749, -0.12, 4.45, -4.71]

Value sought for every listed compound: cytotoxicity at 10 µM.
1. Cc1cnc2c(S(=O)(=O)NC(=O)C(C)OCC3CC3)cccc2c1 (stereo unspecified)
2. N#Cc1cnn(-c2ccc(C(=O)N(C3CCCCC3)C3CC3)cc2)c1N

Response line:
1: -1; 2: -2.54

---

# protocol: Toxicity liver stage against HepG2, at 10uM
# Format: cell-based
# Design: test concentration 10 uM, cell line HepG2-A16-CD81EGFP
# conditions: human, HepG2-A16-CD81EGFP cells; read-out: INHIBITION
result.type: cytotoxicity at 10 µM (%)
Give bare numbers, in %.

Some solved cases for reference:
- molecule: "Cc1cc(NC(=O)CN(c2ccccc2)C(C)C)on1"
  unit: "%"
  cytotoxicity at 10 µM: -1.54
- molecule: "CCCC1CCCN(Cc2csc(-c3ncccn3)n2)CC1 (stereo not given)"
  unit: "%"
  cytotoxicity at 10 µM: 13.6
- molecule: "CC(C(=O)NCC(F)(F)F)N1CCC(N2CCN(C)C2=O)CC1 (stereo not given)"
  unit: "%"
  cytotoxicity at 10 µM: 5.11

Value sought for every listed molecule: cytotoxicity at 10 µM.
1. Cc1cnn(C2CN(CC(=O)NCC(C)C)C2)c1
2. O=C(COCC(F)(F)F)NC1CCCc2cc(OC(F)F)ccc21 (stereo not given)
3. Cc1noc(C)c1C(=O)N(C)Cc1nc(-c2ccccn2)no1
4. c1cnc(-c2noc(C3CN(Cc4ccc5c(c4)CCO5)C3)n2)cn1
5. Cc1cccc(C(=O)N2CCN(c3ccccc3F)CC2)n1

Response line:
[-1.33, -5.36, -6.23, 1.35, 1.83]

---

Please respond with reported cytotoxicity at 10 µM for every item in the list.
# protocol: Toxicity liver stage against HepG2, at 10uM
# Format: cell-based
# Parameters: test concentration 10 uM, cell line HepG2-A16-CD81EGFP
# conditions: human, HepG2-A16-CD81EGFP cells; read-out: INHIBITION
Answers are plain numbers, in %.

Some solved cases for reference:
- molecule: "CCCn1cc(C(=O)NCC(=O)NC2CC2)c(C)n1"
  unit: "%"
  data.value: -3.91
- molecule: "Cc1nc(N)cc(C2CN(C(=O)c3ccn(C)n3)CCO2)n1 (stereo not given)"
  unit: "%"
  data.value: 0.0241
- molecule: "Cc1csc(CNC(=O)NCC(O)c2ccccc2)n1 (stereo not given)"
  unit: "%"
  data.value: 2.26
- molecule: "c1ccc(OC[C@]23COC[C@H]2CN(Cc2ccoc2)C3)nc1"
  unit: "%"
  data.value: -8.63
- molecule: "Cn1ccnc1CC1CCCN(C(=O)NCCOc2cccnc2)C1 (stereo not given)"
  unit: "%"
  data.value: -5.19
- molecule: "c1cc(CN2CCSC3(CCCCC3)C2)no1"
  unit: "%"
  data.value: 0.807
- molecule: "Clc1ccccc1CN1CCc2nc(C3CCCCN3)ncc2C1 (stereo not given)"
  unit: "%"
  data.value: -3.12
- molecule: "CC(C)Cc1cc(C(=O)NC(C)(C)CN2CCCCCC2)on1"
  unit: "%"
  data.value: -4.75

Value sought for every listed molecule: cytotoxicity at 10 µM.
1. CC1CCN(C(=O)CN2CCC(c3n[nH]c(C4CC4)n3)CC2)CC1
2. COc1c(C2CCCN2C(=O)Cc2c(C)noc2C)c(C)nn1C (stereo not given)
3. C=Cn1ncc(CN2C[C@@H]3CCCN3C[C@@H]2CCSC)c1C
4. CCN1CCN(C(=O)c2cccc(CN3CCOCC3)c2)CC1
5. CC(Oc1ccc2c(c1)OCO2)C(=O)Nc1ccon1 (stereo not given)
6. O=C(NC1CCC1)[C@H]1CCS(=O)(=O)[C@@H]2CN(CCc3ccccc3)C[C@H]12

Response line:
1. -0.297
2. -12.9
3. 0.026
4. 7.12
5. 1.09
6. -3.06

---

# protocol: Toxicity liver stage against HepG2, at 10uM
# Format: cell-based
# Parameters: test concentration 10 uM, cell line HepG2-A16-CD81EGFP
# conditions: human, HepG2-A16-CD81EGFP cells; read-out: INHIBITION
result.type: cytotoxicity at 10 µM (%)
One number for each entry, in %.

- compound: "Cc1cc(C)n(CC2CCCN2Cc2ccc(F)cc2C#N)n1 (centres undefined)"
  result.type: "cytotoxicity at 10 µM"
  unit: "%"
  data.value: 7.77
- compound: "CN(C)CCN1C[C@@H]2CN(C(=O)C3CC=CC3)C[C@@H]2C1=O"
  result.type: "cytotoxicity at 10 µM"
  unit: "%"
  data.value: -1.34
- compound: "Cc1ccc(CNC(=O)Nc2nncs2)cn1"
  result.type: "cytotoxicity at 10 µM"
  unit: "%"
  data.value: -9.12

Value sought for every listed compound: cytotoxicity at 10 µM.
1. O=C(NCCN1C(=O)CCC1=O)c1nc2ccccc2c(=O)[nH]1
2. CS(=O)(=O)CC1CCCN(c2ncnc3c2Cc2ccccc2OC3)C1 (centres undefined)
3. O=C(NCC(F)F)c1ccc(S(=O)(=O)N2CCCC(O)C2)cc1 (centres undefined)
4. Cc1cccc(CN2CCC3(CC2)CN(c2cnn(C)c2)C(=O)CO3)n1
5. CCC(O)CN1CCN(C(=O)CCc2c(C)noc2Cl)CC1 (centres undefined)
6. Cc1cc(NCCNc2cccnc2)nc(-c2ccccc2O)n1

Response line:
1. -8.99
2. -7.41
3. 1.29
4. 3.94
5. -8.89
6. 47.9

---

# protocol: Toxicity liver stage against HepG2, at 10uM
# Format: cell-based
# Design: test concentration 10 uM, cell line HepG2-A16-CD81EGFP
# conditions: human, HepG2-A16-CD81EGFP cells; read-out: INHIBITION
result.type: cytotoxicity at 10 µM (%)
Numbers only, in %.

Some solved cases for reference:
- compound: "CNC(=O)c1cccc(NC(=O)c2ccnc(N(C)C)c2)c1C"
  result.type: "cytotoxicity at 10 µM"
  data.value: 4.9
- compound: "Cc1[nH]c(=O)[nH]c(=O)c1CN1CCCC(CCc2c(F)cccc2F)C1 (stereo not given)"
  result.type: "cytotoxicity at 10 µM"
  data.value: -7.32
- compound: "COCCO[C@H]1CCN(c2ccc(C)nn2)[C@H]1Cc1cccnc1"
  result.type: "cytotoxicity at 10 µM"
  data.value: 1.53

Value sought for every listed compound: cytotoxicity at 10 µM.
1. COc1ccc(C(=O)NCC(c2cccn2C)N2CCN(C)CC2)cc1 (stereo not given)
2. CCc1ccc2nc(NCCCN(CCO)CCO)cc(C)c2c1
3. CN(C)C(=O)c1n[nH]c2c1CN(Cc1nccs1)CC2
4. Cc1nc(NCc2nncn2C2CC2)c2c(CC(C)C)csc2n1
5. Cc1ncccc1Oc1nccnc1C1CCCN(C(C)C)C1 (stereo not given)
6. CC(C)(C)c1ncc(C(=O)NC(C(N)=O)c2ccccc2)s1 (stereo not given)

Response line:
8.19
-13.3
-150
-5.57
-10.1
-1.96

Value sought for every listed compound: cytotoxicity at 10 µM.
1. Cc1cc(N)nc(SC2CCN(c3ccccc3)C2=O)n1 (stereo not given)
2. CCS(=O)(=O)N(C)C1CCN(Cn2ccc(-c3ccc(F)cc3)n2)CC1
3. COCC(=O)N1CCCC(Cc2cnc(-c3c(C)n[nH]c3C)cn2)C1 (stereo not given)
4. O=C(NCCCn1cccn1)C1COCC(=O)N1Cc1ccccc1 (stereo not given)
5. CCOCC1CN(Cc2cccnc2)Cc2nn(C)cc21 (stereo not given)
6. CC(Sc1nnc(C2CC2)n1CC(N)=O)c1ccc(Cl)cc1 (stereo not given)

Response line:
-0.572
1.95
-4.51
-8.57
-81.6
7.72

Value sought for every listed compound: cytotoxicity at 10 µM.
1. O=C(NCc1csc(-c2cccs2)n1)C1NCCc2[nH]cnc21 (stereo not given)
2. CC(C)c1ncc2c(n1)CN(Cc1noc(-c3ccccc3)n1)CC2

Response line:
[-0.798, -0.414]

Taken from ChEMBL document CHEMBL4513216.
